# assay.info: In vivo biodistribution of [^203Pb]VMT01 in B16-F10 melanoma xenograft model
# Design: species or system athymic nude mice
# experimental.conditions: both sexes, athymic nude, mouse, kidney, intravenous, 74 KBq, total radioactivity, 24 h post-injection, tail vein, read-out: Biodistribution, Kidneys, Average
Where a SMILES comes first, the peptide text is derived from it. Bridges are numbered along the chain shown (N, C = ends). Triazole bridges read from a SMILES are 1,4-linked. Side-chain parts run from the residue outwards. [ ]: non-standard residue; d: D form. The star is where a group is joined. X1 = NC(=O)CN1CCN(CC(=O)O)CCN(CC(=O)*)CCN(CC(=O)O)CC1; Lys(N3) = [N-]=[N+]=NCCCC[C@H](N)C(=O)O; Nle = CCCC[C@H](N)C(=O)O; Pra = C#CC[C@H](N)C(=O)O; AEEA = NCCOCCOCC(=O)O
experimental.readout: tissue uptake at 24 h (%ID/g)
# value in %ID/g; strip the unit string

Query: Quick check: tissue uptake at 24 h of CCCC[C@H](NC(C)=O)C(=O)N[C@H]1Cc2cn(nn2)CCCC[C@@H](C(=O)N[C@@H](CCCCNC(=O)COCCOCCNC(=O)CN2CCN(CC(=O)O)CCN(CC(N)=O)CCN(CC(=O)O)CC2)C(N)=O)NC(=O)[C@H](Cc2c[nH]c3ccccc23)NC(=O)[C@H](CCCNC(=N)N)NC(=O)[C@@H](Cc2ccccc2)NC(=O)[C@H](Cc2c[nH]cn2)NC1=O [[^203Pb]VMT01, metal not drawn] (Ac-[Nle][Pra]H[dF]RW[Lys(N3)]K([AEEA-X1])-NH2; triazole 2-7) ?
Result: 2.6

----------
# assay.info: In vivo biodistribution of [^203Pb]VMT01 in B16-F10 melanoma xenograft model
# Design: species or system athymic nude mice
# experimental.conditions: both sexes, athymic nude, mouse, blood, intravenous, 74 KBq, total radioactivity, 24 h post-injection, tail vein, read-out: Biodistribution, Blood, Average
Where a SMILES comes first, the peptide text is derived from it. Bridges are numbered along the chain shown (N, C = ends). Triazole bridges read from a SMILES are 1,4-linked. Side-chain parts run from the residue outwards. [ ]: non-standard residue; d: D form. The star is where a group is joined. X1 = NC(=O)CN1CCN(CC(=O)O)CCN(CC(=O)*)CCN(CC(=O)O)CC1; Lys(N3) = [N-]=[N+]=NCCCC[C@H](N)C(=O)O; Nle = CCCC[C@H](N)C(=O)O; Pra = C#CC[C@H](N)C(=O)O; AEEA = NCCOCCOCC(=O)O
experimental.readout: tissue uptake at 24 h
Provide the measurement as a number trailed by its unit.

Query: Quick check: tissue uptake at 24 h of CCCC[C@H](NC(C)=O)C(=O)N[C@H]1Cc2cn(nn2)CCCC[C@@H](C(=O)N[C@@H](CCCCNC(=O)COCCOCCNC(=O)CN2CCN(CC(=O)O)CCN(CC(N)=O)CCN(CC(=O)O)CC2)C(N)=O)NC(=O)[C@H](Cc2c[nH]c3ccccc23)NC(=O)[C@H](CCCNC(=N)N)NC(=O)[C@@H](Cc2ccccc2)NC(=O)[C@H](Cc2c[nH]cn2)NC1=O [[^203Pb]VMT01, metal not drawn] (Ac-[Nle][Pra]H[dF]RW[Lys(N3)]K([AEEA-X1])-NH2; triazole 2-7) ?
Result: 0.01 %ID/g

----------
# assay.info: In vivo biodistribution of [^203Pb]VMT01 in B16-F10 melanoma xenograft model
# Set-up: species or system athymic nude mice
# experimental.conditions: both sexes, athymic nude, mouse, spleen, intravenous, 74 KBq, total radioactivity, 1.5 h post-injection, tail vein, read-out: Biodistribution, Spleen, Average
Where a SMILES comes first, the peptide text is derived from it. Bridges are numbered along the chain shown (N, C = ends). Triazole bridges read from a SMILES are 1,4-linked. Side-chain parts run from the residue outwards. [ ]: non-standard residue; d: D form. The star is where a group is joined. X1 = NC(=O)CN1CCN(CC(=O)O)CCN(CC(=O)*)CCN(CC(=O)O)CC1; Lys(N3) = [N-]=[N+]=NCCCC[C@H](N)C(=O)O; Nle = CCCC[C@H](N)C(=O)O; Pra = C#CC[C@H](N)C(=O)O; AEEA = NCCOCCOCC(=O)O
experimental.readout: tissue uptake at 1.5 h
Provide the measurement as a number trailed by its unit.

Query: Quick check: tissue uptake at 1.5 h of CCCC[C@H](NC(C)=O)C(=O)N[C@H]1Cc2cn(nn2)CCCC[C@@H](C(=O)N[C@@H](CCCCNC(=O)COCCOCCNC(=O)CN2CCN(CC(=O)O)CCN(CC(N)=O)CCN(CC(=O)O)CC2)C(N)=O)NC(=O)[C@H](Cc2c[nH]c3ccccc23)NC(=O)[C@H](CCCNC(=N)N)NC(=O)[C@@H](Cc2ccccc2)NC(=O)[C@H](Cc2c[nH]cn2)NC1=O [[^203Pb]VMT01, metal not drawn] (Ac-[Nle][Pra]H[dF]RW[Lys(N3)]K([AEEA-X1])-NH2; triazole 2-7) ?
Result: 0.17 %ID/g

----------
# assay.info: In vivo biodistribution of [^203Pb]VMT01 in B16-F10 melanoma xenograft model
# Set-up: species or system athymic nude mice
# experimental.conditions: both sexes, athymic nude, mouse, skin, intravenous, 74 KBq, total radioactivity, 3 h post-injection, tail vein, read-out: Biodistribution, Skin, Average
Where a SMILES comes first, the peptide text is derived from it. Bridges are numbered along the chain shown (N, C = ends). Triazole bridges read from a SMILES are 1,4-linked. Side-chain parts run from the residue outwards. [ ]: non-standard residue; d: D form. The star is where a group is joined. X1 = NC(=O)CN1CCN(CC(=O)O)CCN(CC(=O)*)CCN(CC(=O)O)CC1; Lys(N3) = [N-]=[N+]=NCCCC[C@H](N)C(=O)O; Nle = CCCC[C@H](N)C(=O)O; Pra = C#CC[C@H](N)C(=O)O; AEEA = NCCOCCOCC(=O)O
experimental.readout: tissue uptake at 3 h (%ID/g)
# value in %ID/g; strip the unit string

Query: Quick check: tissue uptake at 3 h of CCCC[C@H](NC(C)=O)C(=O)N[C@H]1Cc2cn(nn2)CCCC[C@@H](C(=O)N[C@@H](CCCCNC(=O)COCCOCCNC(=O)CN2CCN(CC(=O)O)CCN(CC(N)=O)CCN(CC(=O)O)CC2)C(N)=O)NC(=O)[C@H](Cc2c[nH]c3ccccc23)NC(=O)[C@H](CCCNC(=N)N)NC(=O)[C@@H](Cc2ccccc2)NC(=O)[C@H](Cc2c[nH]cn2)NC1=O [[^203Pb]VMT01, metal not drawn] (Ac-[Nle][Pra]H[dF]RW[Lys(N3)]K([AEEA-X1])-NH2; triazole 2-7) ?
Result: 0.15

----------
# assay.info: In vivo biodistribution of [^203Pb]VMT01 in B16-F10 melanoma xenograft model
# Parameters: species or system athymic nude mice
# experimental.conditions: both sexes, athymic nude, mouse, brain, intravenous, 74 KBq, total radioactivity, 24 h post-injection, tail vein, read-out: Biodistribution, Brain, Average
Where a SMILES comes first, the peptide text is derived from it. Bridges are numbered along the chain shown (N, C = ends). Triazole bridges read from a SMILES are 1,4-linked. Side-chain parts run from the residue outwards. [ ]: non-standard residue; d: D form. The star is where a group is joined. X1 = NC(=O)CN1CCN(CC(=O)O)CCN(CC(=O)*)CCN(CC(=O)O)CC1; Lys(N3) = [N-]=[N+]=NCCCC[C@H](N)C(=O)O; Nle = CCCC[C@H](N)C(=O)O; Pra = C#CC[C@H](N)C(=O)O; AEEA = NCCOCCOCC(=O)O
experimental.readout: tissue uptake at 24 h (%ID/g)
# value in %ID/g; strip the unit string

Query: Quick check: tissue uptake at 24 h of CCCC[C@H](NC(C)=O)C(=O)N[C@H]1Cc2cn(nn2)CCCC[C@@H](C(=O)N[C@@H](CCCCNC(=O)COCCOCCNC(=O)CN2CCN(CC(=O)O)CCN(CC(N)=O)CCN(CC(=O)O)CC2)C(N)=O)NC(=O)[C@H](Cc2c[nH]c3ccccc23)NC(=O)[C@H](CCCNC(=N)N)NC(=O)[C@@H](Cc2ccccc2)NC(=O)[C@H](Cc2c[nH]cn2)NC1=O [[^203Pb]VMT01, metal not drawn] (Ac-[Nle][Pra]H[dF]RW[Lys(N3)]K([AEEA-X1])-NH2; triazole 2-7) ?
Result: 0.01

----------
# assay.info: In vivo biodistribution of [^203Pb]VMT01 in B16-F10 melanoma xenograft model
# Set-up: species or system athymic nude mice
# experimental.conditions: both sexes, athymic nude, mouse, liver, intravenous, 74 KBq, total radioactivity, 0.5 h post-injection, tail vein, read-out: Biodistribution, Liver, Average
Where a SMILES comes first, the peptide text is derived from it. Bridges are numbered along the chain shown (N, C = ends). Triazole bridges read from a SMILES are 1,4-linked. Side-chain parts run from the residue outwards. [ ]: non-standard residue; d: D form. The star is where a group is joined. X1 = NC(=O)CN1CCN(CC(=O)O)CCN(CC(=O)*)CCN(CC(=O)O)CC1; Lys(N3) = [N-]=[N+]=NCCCC[C@H](N)C(=O)O; Nle = CCCC[C@H](N)C(=O)O; Pra = C#CC[C@H](N)C(=O)O; AEEA = NCCOCCOCC(=O)O
experimental.readout: tissue uptake at 0.5 h (%ID/g)
# value in %ID/g; strip the unit string

Query: Quick check: tissue uptake at 0.5 h of CCCC[C@H](NC(C)=O)C(=O)N[C@H]1Cc2cn(nn2)CCCC[C@@H](C(=O)N[C@@H](CCCCNC(=O)COCCOCCNC(=O)CN2CCN(CC(=O)O)CCN(CC(N)=O)CCN(CC(=O)O)CC2)C(N)=O)NC(=O)[C@H](Cc2c[nH]c3ccccc23)NC(=O)[C@H](CCCNC(=N)N)NC(=O)[C@@H](Cc2ccccc2)NC(=O)[C@H](Cc2c[nH]cn2)NC1=O [[^203Pb]VMT01, metal not drawn] (Ac-[Nle][Pra]H[dF]RW[Lys(N3)]K([AEEA-X1])-NH2; triazole 2-7) ?
Result: 0.64
